method_notes: physchem
condition_summary: pH 7, water
reported_metric: solubility

// solubility lookup, compound = CS(=O)(=O)c1ccc([C@@H](O)[C@@H](CF)NC(=O)C(Cl)Cl)cc1 , result: ≤ 1.3 mg/mL
